- Test system: HeLa
- Assay Remarks: Antiproliferative activity against human HeLa cells by SRB assay
- Type: functional
Measure Name: GI50 (µM)
Reply with just the number (in µM).

Take a look at these entries with their results.
O[C@@H]1[C@@H](OCc2ccccc2)[C@H](OCc2ccccc2)[C@@H](COCc2ccccc2)O[C@H]1CC1CCCCC1 | 9.5
CC(=O)O[C@@H]1[C@@H](OCc2ccccc2)[C@H](OC(C)=O)[C@@H](COCc2ccccc2)O[C@H]1Cc1ccccc1 | 5.4
CCCCCCCCCCCCCCCOC[C@H]1O[C@H](CCC)[C@H](O)[C@@H](OCCCCCCCCCCCCCCC)[C@@H]1OCCCCCCCCCCCCCCC | 28.7
O[C@@H]1[C@@H](OCc2ccccc2)[C@H](OCc2ccccc2)[C@@H](COCc2ccccc2)O[C@H]1Cc1ccccc1 | 17.4
CC[C@@H]1O[C@H](COCc2ccccc2)[C@@H](OCc2ccccc2)[C@H](OCc2ccccc2)[C@H]1O | 19.8
C=CC[C@@H]1O[C@H](COCc2ccccc2)[C@@H](OCc2ccccc2)[C@H](OCc2ccccc2)[C@H]1O | 26.2
CCC[C@@H]1O[C@H](COCc2ccccc2)[C@@H](OCc2ccccc2)[C@H](OCc2ccccc2)[C@@H]1O | 23.3
OC[C@@H]1O[C@H](COCc2ccccc2)[C@@H](OCc2ccccc2)[C@H](OCc2ccccc2)[C@H]1O | 25.8

Field GI50 (entry CCC[C@H]1O[C@H](COCc2ccc(F)cc2)[C@@H](OCc2ccc(F)cc2)[C@H](OCc2ccc(F)cc2)[C@H]1O ) reads 5.6

Field GI50 (entry c1ccc(COC[C@H]2OCC[C@@H](OCc3ccccc3)[C@@H]2OCc2ccccc2)cc1 ) reads 33.3

Field GI50 (entry CCC[C@@H]1O[C@H](COCc2ccc(F)cc2)[C@@H](OCc2ccc(F)cc2)[C@H](OCc2ccc(F)cc2)[C@H]1O ) reads 12.3

Field GI50 (entry CCC[C@H]1O[C@H](COCc2ccccc2)[C@@H](OCc2ccccc2)[C@H](OCc2ccccc2)[C@H]1O ) reads 17.4

Field GI50 (entry CCC[C@@H]1O[C@H](COCc2ccccc2)[C@@H](OCc2ccccc2)[C@H](OCc2ccccc2)[C@H]1O ) reads 18.9

---

- System: HeLa
- Assay Remarks: Antiproliferative activity against human HeLa cells by SRB assay
- Type: functional
Measure Name: GI50

Take a look at these entries with their results.
CCCCC[C@@H]1O[C@H](COCc2ccccc2)[C@@H](OCc2ccccc2)[C@H](OCc2ccccc2)C1=O | > 50 µM
OC[C@H]1O[C@@H](Cc2ccccc2)[C@H](O)[C@@H](OCc2ccccc2)[C@@H]1OCc1ccccc1 | 38 µM
C=CC[C@@H]1O[C@H](COCc2ccccc2)[C@@H](OCc2ccccc2)[C@H](OCc2ccccc2)[C@H]1OCc1ccccc1 | > 50 µM
CC(C)C[C@@H]1O[C@H](COCc2ccccc2)[C@@H](OCc2ccccc2)[C@H](OCc2ccccc2)[C@H]1O | > 50 µM

Shift focus to the following entry.
Field GI50 (entry CC(C)C[C@H]1O[C@H](COCc2ccccc2)[C@@H](OCc2ccccc2)[C@H](OCc2ccccc2)[C@H]1O ) reads 43.9 µM
